target-system: T1, serum purified human Complement Factor D (human, UniProt P00746 26-253)
T1 construct: Serum purified protein flowed over the captured antibodies; also called CFD; human CFD
T1 sequence (P00746 26-253): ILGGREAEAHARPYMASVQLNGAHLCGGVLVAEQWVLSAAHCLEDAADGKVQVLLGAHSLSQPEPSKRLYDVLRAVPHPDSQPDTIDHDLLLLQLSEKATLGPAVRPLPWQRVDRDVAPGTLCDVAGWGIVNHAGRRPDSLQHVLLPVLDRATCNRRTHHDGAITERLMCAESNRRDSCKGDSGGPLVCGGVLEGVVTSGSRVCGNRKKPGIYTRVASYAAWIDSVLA
method-summary: SPR Biacore, 37 C
measurement-label: pKd
In plain terms, pKd is the concentration in mol/L turned into minus its base-10 logarithm.

Worked examples follow.
binder | measurement-label | test-value
31S34I54I59D / 54R101V (antibody, V domains shown, KCD119 TAF variant) VH: EVQLVESGGGLVQPGGSLRLSCAASGYTFTSYYINWVRQAPGKGLEWIGDINPITGDTDYNADFKRRFTFSLDTSKSTAYLQMNSLRAEDTAVYYCTREGPSFAYWGQGTLVTVSS VL: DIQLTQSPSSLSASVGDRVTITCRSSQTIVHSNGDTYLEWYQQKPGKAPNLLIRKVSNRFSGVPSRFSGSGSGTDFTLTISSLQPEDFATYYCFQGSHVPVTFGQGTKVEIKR | pKd | 11.02
54I59D / 54R101V (antibody, V domains shown, KCD119 TAF variant) VH: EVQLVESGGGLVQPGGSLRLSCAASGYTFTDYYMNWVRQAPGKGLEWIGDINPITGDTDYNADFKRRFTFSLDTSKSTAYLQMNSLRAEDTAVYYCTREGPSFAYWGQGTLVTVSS VL: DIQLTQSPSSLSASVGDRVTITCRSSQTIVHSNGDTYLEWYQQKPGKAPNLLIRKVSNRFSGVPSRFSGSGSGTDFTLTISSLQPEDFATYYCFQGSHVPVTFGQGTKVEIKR | pKd | 11.18

Problem: // fetch pKd given entry 31S54I59D / 54R101V (antibody, V domains shown, KCD119 TAF variant) VH: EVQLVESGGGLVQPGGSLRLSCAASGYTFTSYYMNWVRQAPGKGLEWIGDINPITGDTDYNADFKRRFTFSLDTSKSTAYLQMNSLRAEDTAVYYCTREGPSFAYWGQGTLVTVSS VL: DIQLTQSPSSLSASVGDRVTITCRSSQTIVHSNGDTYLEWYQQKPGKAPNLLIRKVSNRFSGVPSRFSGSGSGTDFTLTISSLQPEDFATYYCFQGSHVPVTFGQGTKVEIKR
Result: 11.09

Problem: // fetch pKd given entry 34I54I59D / 54R101V (antibody, V domains shown, KCD119 TAF variant) VH: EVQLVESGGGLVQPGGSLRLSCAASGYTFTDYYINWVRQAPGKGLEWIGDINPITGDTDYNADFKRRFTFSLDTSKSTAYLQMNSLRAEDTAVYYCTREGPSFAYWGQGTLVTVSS VL: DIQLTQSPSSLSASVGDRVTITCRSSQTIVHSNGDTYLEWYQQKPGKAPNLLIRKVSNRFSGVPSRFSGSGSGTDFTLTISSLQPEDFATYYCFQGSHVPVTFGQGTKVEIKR
Result: 11.09
